TARGET_UNDER_TEST: Hck (UniProt P08631)
Sequence (P08631 whole entry, looked up): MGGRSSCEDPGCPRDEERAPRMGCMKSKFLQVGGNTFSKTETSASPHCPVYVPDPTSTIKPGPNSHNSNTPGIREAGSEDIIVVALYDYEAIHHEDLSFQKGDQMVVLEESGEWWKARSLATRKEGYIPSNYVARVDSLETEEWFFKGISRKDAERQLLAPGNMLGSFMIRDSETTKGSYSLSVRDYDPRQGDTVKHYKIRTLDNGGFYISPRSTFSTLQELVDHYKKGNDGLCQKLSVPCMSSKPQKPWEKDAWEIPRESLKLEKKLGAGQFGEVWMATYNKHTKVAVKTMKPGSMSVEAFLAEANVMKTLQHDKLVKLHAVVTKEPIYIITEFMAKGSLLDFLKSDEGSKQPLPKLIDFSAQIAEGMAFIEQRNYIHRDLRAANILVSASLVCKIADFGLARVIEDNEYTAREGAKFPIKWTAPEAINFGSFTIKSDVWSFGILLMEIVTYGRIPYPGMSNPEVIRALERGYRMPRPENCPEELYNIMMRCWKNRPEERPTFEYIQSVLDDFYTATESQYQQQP
METHOD: phosphorylation enrichment, bacterial display (enrichment ratio); higher = better substrate or ligand; peptides without Tyr show the background;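 also: 11-residue human phosphosite peptides and single-mutation variants displayed on the E. coli surface, counted by deep sequencing, each peptide's frequency after selection divided by its frequency in the unselected input library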;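 also: frequency after pTyr selection over input frequency; kinase dosed for 20-30% of maximal phosphorylation in three min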
QUANTITY_KIND: phosphorylation enrichment

INSERT INTO assay_data (sequence_entry, quantity_kind, result) VALUES
  ('GADAIYDHINE [UQCR10_Y44]', 'phosphorylation enrichment', 6.65),
  ('HLSPEYKQNEI [GJB1_Y243_R238H]', 'phosphorylation enrichment', 0.614),
  ('HSVVQYVGGVM [FGGY_Y136_L134V]', 'phosphorylation enrichment', 0.609),
  ('KGERGYPGTLG [COL4A1_Y348_P352L]', 'phosphorylation enrichment', 0.448),
  ('FSIAQYCCRMG [LRRK2_Y2023_G2019S_YF]', 'phosphorylation enrichment', 0.449),
  ('QQLVAYFSKHT [SRC_Y232_A237T_YF]', 'phosphorylation enrichment', 0.699),
  ('EITSHYRHLLR [ZBTB46_Y14]', 'phosphorylation enrichment', 0.389),
  ('NDFGNYSNQSS [HNRNPA1_Y318_N319S]', 'phosphorylation enrichment', 0.451),
  ('FLEEEYVKAVG [TF_Y674_G671E_YF]', 'phosphorylation enrichment', 0.517),
  ('ASELGYVFQAI [UROD_Y133]', 'phosphorylation enrichment', 0.378),
  ('YVPSNYVAEDR [FRK_Y104_I100V]', 'phosphorylation enrichment', 0.382),
  ('IKEFKYGIEEH [GJA1_Y137_K134E]', 'phosphorylation enrichment', 0.42),
  ('VPLATYMQIFK [RPL21_Y30_R32Q_YF]', 'phosphorylation enrichment', 1.8),
  ('NVTGHYIPPFH [PPA2_Y59_S61P]', 'phosphorylation enrichment', 0.418);

###

TARGET_UNDER_TEST: Jak2 (UniProt O60674)
Sequence (O60674 whole entry, looked up): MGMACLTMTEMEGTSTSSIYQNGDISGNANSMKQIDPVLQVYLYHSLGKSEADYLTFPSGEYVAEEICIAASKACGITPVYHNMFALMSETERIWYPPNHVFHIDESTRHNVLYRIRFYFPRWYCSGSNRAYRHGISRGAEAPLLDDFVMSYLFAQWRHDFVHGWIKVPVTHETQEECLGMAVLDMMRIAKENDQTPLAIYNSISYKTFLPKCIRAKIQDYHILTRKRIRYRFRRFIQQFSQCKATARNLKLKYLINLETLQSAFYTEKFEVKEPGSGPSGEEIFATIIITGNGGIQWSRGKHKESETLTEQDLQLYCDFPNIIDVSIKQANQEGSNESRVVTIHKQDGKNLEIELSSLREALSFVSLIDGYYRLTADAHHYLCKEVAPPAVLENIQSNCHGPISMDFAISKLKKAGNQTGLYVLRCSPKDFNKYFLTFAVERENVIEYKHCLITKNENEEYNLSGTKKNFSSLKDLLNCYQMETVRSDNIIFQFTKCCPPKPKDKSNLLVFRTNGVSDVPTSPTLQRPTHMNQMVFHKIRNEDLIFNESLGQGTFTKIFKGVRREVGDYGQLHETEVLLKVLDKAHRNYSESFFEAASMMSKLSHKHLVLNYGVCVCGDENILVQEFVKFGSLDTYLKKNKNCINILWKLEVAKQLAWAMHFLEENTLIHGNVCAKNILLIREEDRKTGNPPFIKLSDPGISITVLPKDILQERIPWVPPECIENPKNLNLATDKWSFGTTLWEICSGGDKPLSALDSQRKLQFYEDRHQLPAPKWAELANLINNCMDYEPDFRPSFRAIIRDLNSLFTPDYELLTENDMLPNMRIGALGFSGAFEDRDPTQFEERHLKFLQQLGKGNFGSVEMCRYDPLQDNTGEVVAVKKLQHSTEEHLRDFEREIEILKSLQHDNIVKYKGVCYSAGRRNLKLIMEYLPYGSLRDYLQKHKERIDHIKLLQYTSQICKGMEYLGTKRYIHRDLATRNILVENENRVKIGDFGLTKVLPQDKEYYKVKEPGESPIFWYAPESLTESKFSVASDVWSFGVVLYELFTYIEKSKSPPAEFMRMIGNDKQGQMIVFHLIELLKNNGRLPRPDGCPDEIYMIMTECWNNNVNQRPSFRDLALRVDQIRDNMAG
METHOD: phosphorylation enrichment, bacterial display (enrichment ratio); higher = better substrate or ligand; peptides without Tyr show the background
Tag: met if measured phosphorylation enrichment is not below 0.7, not met if it is.

INSERT INTO measurements (sequence_entry, assigned_category) VALUES
  ('LTFPDYLPCSV [SAG_Y129]', 'met'),
  ('GIADDYDKKKP [EIF1_Y54_L59P]', 'met'),
  ('PTTKSYFPHFD [HBA1_Y43_T42S]', 'not met'),
  ('DALDNYVVRGV [PCCA_Y473_I475V]', 'met'),
  ('TSHKGYVAFLE [CARD9_Y76_G72S]', 'not met'),
  ('LREIRYQGGNR [VWF_Y1570_V1565L]', 'not met'),
  ('YRQNVYIPGSN [PCDHGA1_Y895]', 'not met'),
  ('QRDSSYYWEIE [RAF1_Y340]', 'met'),
  ('VGIMLYGVDSR [PKD1_Y3143]', 'met'),
  ('AVRVFYRKCPH [EPHB2_Y194_R199H]', 'met'),
  ('YVPSNYVAEDR [FRK_Y104_I100V]', 'not met'),
  ('DTCPPYVLSQG [GJB4_Y237]', 'met'),
  ('FAAAGYGSLEA [EPHA10_Y959]', 'not met'),
  ('GSCQEYTGAPF [NAXD_Y85_G81S_YF]', 'met'),
  ('GSIQQYTYKQE [PRG4_Y1271_I1272T]', 'met'),
  ('TFWKKYCTFWK [CCDC70_Y125_R126C]', 'met'),
  ('TGDVQYRSSVR [FREM2_Y2158]', 'not met'),
  ('QNTGFYFDLFG [PTPN11_Y62_D61Y_YF]', 'met'),
  ('HVIKLFGACSQ [RET_Y791_Y791F]', 'met'),
  ('IDNKMYDPKMN [ENPP1_Y280]', 'not met'),
  ('RLLRGYDQYAY [HLA-B_Y137_H137Y]', 'met'),
  ('METKGYQSLPE [NR3C2_Y6_H7Q]', 'met'),
  ('QFQLKYSETPF [SIX6OS1_Y129_YF]', 'met'),
  ('AEPDIYQEKLS [USP54_Y1233]', 'met'),
  ('WKESWYSMRKM [FGB_Y475_G472E]', 'met'),
  ('REGDKYVSHGA [ASS1_Y113_A111D]', 'met'),
  ('KSRQIYDAYIM [GRK3_Y109_R104K]', 'not met'),
  ('LFLACYFIGGG [UBD_Y161_C162F]', 'met');

###

TARGET_UNDER_TEST: FGFR1 (UniProt P11362)
Sequence (P11362 whole entry, looked up): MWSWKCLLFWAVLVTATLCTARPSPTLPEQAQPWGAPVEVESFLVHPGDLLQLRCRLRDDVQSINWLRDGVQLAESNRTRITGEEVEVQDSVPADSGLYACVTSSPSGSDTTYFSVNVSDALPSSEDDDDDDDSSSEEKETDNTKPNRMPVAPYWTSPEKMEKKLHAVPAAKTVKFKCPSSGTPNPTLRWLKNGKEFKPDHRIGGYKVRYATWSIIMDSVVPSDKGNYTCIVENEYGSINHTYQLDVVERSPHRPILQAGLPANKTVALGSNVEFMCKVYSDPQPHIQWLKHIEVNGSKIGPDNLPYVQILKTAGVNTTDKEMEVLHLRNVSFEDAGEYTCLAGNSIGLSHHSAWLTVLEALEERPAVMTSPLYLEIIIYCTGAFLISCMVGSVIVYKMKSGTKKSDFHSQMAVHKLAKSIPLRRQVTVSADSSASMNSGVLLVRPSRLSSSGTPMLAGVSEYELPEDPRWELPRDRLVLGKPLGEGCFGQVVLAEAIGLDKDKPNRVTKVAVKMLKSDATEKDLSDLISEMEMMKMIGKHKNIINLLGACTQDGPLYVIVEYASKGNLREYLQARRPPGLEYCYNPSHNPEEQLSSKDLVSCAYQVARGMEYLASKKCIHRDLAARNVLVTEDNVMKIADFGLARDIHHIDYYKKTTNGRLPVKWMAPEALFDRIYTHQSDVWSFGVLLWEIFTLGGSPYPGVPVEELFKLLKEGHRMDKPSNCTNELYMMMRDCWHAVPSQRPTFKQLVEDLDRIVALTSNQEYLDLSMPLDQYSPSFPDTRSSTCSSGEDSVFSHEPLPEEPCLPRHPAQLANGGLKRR
METHOD: phosphorylation enrichment, bacterial display (enrichment ratio); higher = better substrate or ligand; peptides without Tyr show the background
# label = bin(measured phosphorylation enrichment), where bins are bottom range (below 0.5), center range (0.5 to below 0.7), top range (0.7 or more)

INSERT INTO measurements (sequence_entry, assigned_category) VALUES
  ('ENRLDYGSAWA [AR_Y395_P392R]', 'bottom range'),
  ('IDNKMYDPKMN [ENPP1_Y280]', 'center range'),
  ('ISHVAYCVLGK [TRRAP_Y892_R893C]', 'top range'),
  ('PTEAQYRFIYM [PTPN11_Y511_Q506P]', 'top range'),
  ('AKRKNYAPVAM [CFAP47_Y557]', 'center range'),
  ('DGQVNYEEFVQ [CALM1_Y139]', 'center range'),
  ('ALCHYYKLNII [ETV6_Y402_R399C]', 'top range'),
  ('SKLTIYDGRPS [MTM1_Y277_A279G]', 'bottom range'),
  ('KVMANYMYKAG [MAML2_Y513]', 'center range'),
  ('HFPDVYAWEQL [ALX3_Y181_R183W_YF]', 'center range'),
  ('RSDEDYLFREE [POR_Y573_YF]', 'top range'),
  ('TVLEPYADPYY [ZC3H18_Y367]', 'top range'),
  ('LYDPDFMKVIL [CYP4A22_Y104_Y104F]', 'center range'),
  ('SSMIDYNLLEK [MYOC_Y479_P481L]', 'center range'),
  ('PSQRCYVYYYS [PTEN_Y174_R173C]', 'top range'),
  ('AKKVFYMIETR [SHH_Y253_V254M]', 'bottom range'),
  ('ASELGYVFQAI [UROD_Y133]', 'bottom range'),
  ('FSCLPYRRLAF [SLC52A2_Y305_G306R_YF]', 'bottom range'),
  ('GSIQQYTYKQE [PRG4_Y1271_I1272T]', 'bottom range'),
  ('QEGPEYWDGET [HLA-A_Y83_Q86G]', 'top range'),
  ('CTTIHYNYMHN [TP53_Y234_C238H]', 'bottom range'),
  ('QGQHWYSSSDT [CASP10_Y9_K14T]', 'center range'),
  ('QNVADYMRYLM [RPL5_Y207]', 'top range'),
  ('HNLPIYEGFAL [ACTA1_Y168_V165L_YF]', 'center range'),
  ('SLAARYYNWVC [FLT4_Y1230_S1235C]', 'top range'),
  ('AEEKEYHAEGG [EGFR_Y869]', 'bottom range'),
  ('TDIVAYSGWVQ [SPTBN2_Y477_R480W]', 'center range'),
  ('RLLRGYDQSAY [HLA-C_Y137]', 'bottom range'),
  ('LLFRVYGLESL [INSR_Y94]', 'center range'),
  ('FSIAQYCCRMG [LRRK2_Y2023_G2019S_YF]', 'bottom range'),
  ('DENWFYTQAAS [RPS19_Y54_R56Q]', 'bottom range'),
  ('NDTAGYFVIGG [SEL1L3_Y399_I401V]', 'top range'),
  ('MDDKEYYSVHN [MET_Y1234_Y1230D]', 'top range'),
  ('SEASFYKSLNL [NGEF_Y289_YF]', 'bottom range'),
  ('TFVKSYTIHFS [F5_Y2153_M2148T_YF]', 'center range'),
  ('DWWQEYVLNES [TGM1_Y267_R264W]', 'top range'),
  ('WHHTFYNEPRV [ACTA1_Y93_L96P]', 'center range'),
  ('FGLQAYTKVKT [ALDH2_Y502_E504K_YF]', 'bottom range'),
  ('FLQTDDTSQVS [FRMPD1_Y846_Y846D]', 'bottom range'),
  ('VLALWYYYLTH [ZDHHC23_Y127]', 'top range'),
  ('DGTESYLTVSS [PLK1_Y462]', 'bottom range'),
  ('RSFSPCDFQPC [TNS1_Y796_Y796C_YF]', 'center range'),
  ('LRGVIYVILRK [PMP22_Y153_S149R]', 'center range'),
  ('GPGSGYTNIMR [PKLR_Y564_R559G]', 'bottom range'),
  ('DYLEKYYKFGC [NNMT_Y24_S29C]', 'top range'),
  ('ICANKYMVKSC [RPL10_Y75]', 'bottom range'),
  ('GSQERYFELVE [TSC2_Y407]', 'top range'),
  ('SVETPYGSVTF [NDRG2_Y47]', 'bottom range'),
  ('THPFPYLSLEI [MLH1_Y293_L292P]', 'center range'),
  ('TKGNEYVFRVA', 'center range'),
  ('FETSHYPASPD [CTNND2_Y1217_YF]', 'bottom range'),
  ('LFLACYFIGGG [UBD_Y161_C162F]', 'bottom range'),
  ('KDIENHIQDGK [RAD50_Y964_Y964H]', 'bottom range');
